Test: RP, Waters ACQUITY UPLC HSS T3, 100 × 2.1 mm, 1.8 µm; A: water + 0.1% formic acid, pH 3; B: 30% methanol + 70% acetonitrile + 0.1% formic acid, pH 3; gradient (min/%B) 0.0/5 1.0/8 2.0/15 3.0/40 4.0/70 4.5/100 5.0/100 6.4/100 6.6/5.0 6.8/5.0 7.0/5.0
Settings: stereoisomer not certain

{"Structure Notation": "NCCS(=O)(=O)O", "LC retention time (min)": 0.47}
{"Structure Notation": "CC(=O)CCC(=O)O", "LC retention time (min)": 1.46}
{"Structure Notation": "O=c1c(O)c(-c2ccc(O)c(O)c2)oc2cc(O)cc(O)c12", "LC retention time (min)": 3.74}

* * *

Test: RP, Waters ACQUITY UPLC HSS T3, 100 × 2.1 mm, 1.8 µm; A: water + 0.1% formic acid, pH 3; B: 30% methanol + 70% acetonitrile + 0.1% formic acid, pH 3; gradient (min/%B) 0.0/5 1.0/8 2.0/15 3.0/40 4.0/70 4.5/100 5.0/100 6.4/100 6.6/5.0 6.8/5.0 7.0/5.0
Conditions: stereoisomer not certain
Overview of reported LC retention time across a group of compounds:

{"Compound": "O=C(O)CCCCCCCC(=O)O", "LC retention time (min)": 3.63}
{"Compound": "c1coc(CNc2ncnc3nc[nH]c23)c1", "LC retention time (min)": 3.03}
{"Compound": "CC(O)CC(=O)O (centres undefined) [3-hydroxybutyric acid]", "LC retention time (min)": 3.44}
{"Compound": "COc1cc2c(CCNC(C)=O)c[nH]c2cc1O [6-hydroxymelatonin]", "LC retention time (min)": 3.4}

* * *

Test: RP, Waters ACQUITY UPLC BEH C18, 100 × 2.1 mm, 1.7 µm; A: water + 0.1% formic acid, pH 3; B: 80% acetonitrile + 20% acetone + 0.1% formic acid, pH 3; gradient (min/%B) 0/0 6/100
Conditions: stereoisomer not certain

{"Compound": "CC(C)(O)CC(=O)O [3-hydroxy-3-methyl butanoic acid]", "LC retention time, min": 1.44}
{"Compound": "OCC(O)c1ccc(O)c(O)c1 (stereo not drawn) [3,4-dihydroxyphenyl glycol]", "LC retention time, min": 1.02}
{"Compound": "CCCCCC=CCC=CCCCCCCCC(=O)OCC(O)COP(=O)([O-])OCC[N+](C)(C)C (stereo not drawn)", "LC retention time, min": 4.25}

* * *

Experiment: RP, Waters ACQUITY UPLC HSS T3, 100 × 2.1 mm, 1.8 µm; A: water + 0.1% formic acid, pH 3; B: 30% methanol + 70% acetonitrile + 0.1% formic acid, pH 3; gradient (min/%B) 0.0/5 1.0/8 2.0/15 3.0/40 4.0/70 4.5/100 5.0/100 6.4/100 6.6/5.0 6.8/5.0 7.0/5.0
Conditions: stereoisomer not certain
# key: entry, value: LC retention time

{"Compound": "CSCCC(NC(=O)Cc1ccccc1)C(=O)O (configuration not stated)", "Unit": "min", "LC retention time": 3.79}
{"Compound": "Cc1ccccc1C(=O)NCC(=O)O", "Unit": "min", "LC retention time": 3.41}
{"Compound": "O=C(O)C1CCCN1 (configuration not stated)", "Unit": "min", "LC retention time": 0.506}
{"Compound": "Nc1ncnc2nc[nH]c12", "Unit": "min", "LC retention time": 0.538}
{"Compound": "CC12CCC(=O)C=C1CCC1C2C(=O)CC2(C)C1CCC2(O)C(=O)CO (configuration not stated)", "Unit": "min", "LC retention time": 3.84}
{"Compound": "C[NH+]1CC(O)CC1C(=O)[O-] (configuration not stated) [n-methyl-4-hydroxyproline]", "Unit": "min", "LC retention time": 0.498}
{"Compound": "Cc1cc(C(=O)O)ccc1O [4-hydroxy-3-methylbenzoic acid]", "Unit": "min", "LC retention time": 3.46}
{"Compound": "CCCCCCCCCCCC(=O)OC(CC(=O)[O-])C[N+](C)(C)C (configuration not stated)", "Unit": "min", "LC retention time": 4.2}
{"Compound": "CC(=O)NC(CSC(=S)NCCCCS(C)=O)C(=O)O (configuration not stated)", "Unit": "min", "LC retention time": 3.24}
{"Compound": "O=C1CCC(C(=O)N2CCCC2C(=O)O)N1 (configuration not stated)", "Unit": "min", "LC retention time": 2.02}
{"Compound": "OCC1OC(OC2C(CO)OC(O)C(O)C2O)C(O)C(O)C1O (configuration not stated) [alfa-lactose monohydrate]", "Unit": "min", "LC retention time": 0.476}
{"Compound": "OCC1OC(OC2(CO)OC(CO)C(O)C2O)C(O)C(O)C1O (configuration not stated)", "Unit": "min", "LC retention time": 0.504}
{"Compound": "O=C([O-])c1cc(=O)[nH]c(=O)[nH]1", "Unit": "min", "LC retention time": 0.588}
{"Compound": "NC(=O)NCCCC(N)C(=O)O (configuration not stated)", "Unit": "min", "LC retention time": 0.47}
{"Compound": "O=C(Cc1c[nH]c2ccccc12)OC1OC(C(=O)O)C(O)C(O)C1O (configuration not stated) [indole-3-acetic acid-glucuronide]", "Unit": "min", "LC retention time": 3.46}
{"Compound": "Nc1nc2c(ncn2C2OC(CO)C(O)C2O)c(=O)[nH]1 (configuration not stated)", "Unit": "min", "LC retention time": 1.18}
{"Compound": "CC(=O)NC(Cc1ccc(O)cc1)C(=O)O (configuration not stated)", "Unit": "min", "LC retention time": 2.68}
{"Compound": "NC(CC(=O)O)C(=O)NC(Cc1ccccc1)C(=O)O (configuration not stated)", "Unit": "min", "LC retention time": 2.67}
{"Compound": "CCC=CCC=CCC=CCC=CCC=CCC=CCCC(=O)OC(COC(=O)CCCCCCCCCCCCCCCCC)COP(=O)([O-])OCC[N+](C)(C)C (configuration not stated)", "Unit": "min", "LC retention time": 5.51}
{"Compound": "O=C(O)Cc1ccccc1", "Unit": "min", "LC retention time": 0.861}
{"Compound": "COc1cc(C=O)ccc1O", "Unit": "min", "LC retention time": 3.45}
{"Compound": "NC(=O)NC(NC(N)=O)C(=O)O", "Unit": "min", "LC retention time": 0.491}
{"Compound": "O=C(O)Cc1c[nH]c2ccc(O)cc12 [5-hydroxyindole-acetic acid]", "Unit": "min", "LC retention time": 2.92}
{"Compound": "CC(O)C(N)C(=O)O (configuration not stated)", "Unit": "min", "LC retention time": 0.475}
{"Compound": "NC(CCCNC1=NCC(=O)N1)C(=O)O (configuration not stated)", "Unit": "min", "LC retention time": 0.459}
{"Compound": "O=C(O)CCCC(=O)O", "Unit": "min", "LC retention time": 1.32}
{"Compound": "CC(CCC(=O)NCC(=O)O)C1CCC2C3C(O)CC4CC(OC5OC(C(=O)O)C(O)C(O)C5O)CCC4(C)C3CCC12C (configuration not stated) [glycochenodeoxycholic acid 3-glucuronide]", "Unit": "min", "LC retention time": 4.34}
{"Compound": "Cc1cn(C2OC(CO)C(O)C2O)c(=O)nc1N (configuration not stated)", "Unit": "min", "LC retention time": 1.18}
{"Compound": "NC(CCCCn1c(C=O)ccc1CO)C(=O)O (configuration not stated)", "Unit": "min", "LC retention time": 2.31}
{"Compound": "CCCCCCCCCCCC(=O)N(C)CC(=O)O", "Unit": "min", "LC retention time": 4.6}
{"Compound": "Nc1ccc(C(=O)O)cc1", "Unit": "min", "LC retention time": 2.09}
{"Compound": "Cn1c(=O)[nH]c2[nH]c(=O)[nH]c2c1=O", "Unit": "min", "LC retention time": 1.27}
